metric: melting point

# annotated cases, reported melting point shown
Return reported melting point; argument: ClCc1nnc(C2CC2)s1
80 to 84 °C

Query: melting point; subject: Fc1ccc(S)cc1F
34 to 38 °C

Fill in: melting point of Cc1nc(-c2ccccc2)ncc1C=O is ___
101 to 103 °C

// next item, melting point requested
Request the reported melting point associated with O=C(OCc1ccccc1)C(=O)OCc1ccccc1
80 to 82 °C

----------
metric: melting point

Below are worked cases with known answers.
Which melting point is listed for NS(=O)(=O)c1ccc(N=C=S)cc1 ?
210 to 212 °C

What value of melting point has been reported for the following molecule? O=C1Cc2ccccc2C(=O)Cc2ccccc21
207 to 209 °C

Which measured melting point value corresponds to CCC#CC(=O)O ?
50 °C

Consider now this further molecule.
Recorded melting point for CC(=O)Nc1ccc(S(=O)(=O)NCCO)cc1 , please?
126 to 127 °C

----------
metric: melting point (°C)

I have this compound here, O=C(NN=CC=Cc1ccc([N+](=O)[O-])o1)c1ccc([N+](=O)[O-])s1 , and I need its recorded melting point.
236

For the compound CC(=O)c1ccc2[nH]c(=O)oc2c1 , what melting point is on record?
236

(A) COc1cc(C=CC(=O)O)cc(Br)c1O
(B) CC(O)(c1ccc(Cl)cc1)c1ccc(Cl)cc1
Please indicate which entry, A or B , has the lower recorded melting point value. Please reply using the label of the selected record.
B
(B: 70 °C, A: 256 °C)

----------
metric: melting point

Consider the reported melting point for these compounds:
Requested read-out: melting point. Entry: COC(=O)c1ccccc1-n1c(=S)[nH]c2ccccc2c1=O
255 to 257 °C

Entry N[C@H](CO)[C@H](O)c1ccccc1 : reported melting point = ?
110 to 114 °C

Would you mind telling me what melting point value was observed for O=C(CBr)c1ccc(OC(F)F)cc1 ?
63 to 65 °C

Now consider a different compound.
Look at this compound and give its reported melting point. NCc1ccccc1-n1cccc1
156 to 157 °C

----------
metric: melting point (°C)

Any idea what its melting point is? The molecule is COC1=CC(C)C2CC3OC(=O)CC4C(C)=C(OC)C(=O)C(C2(C)C1=O)C34C (stereo not given)
222

If you can, please state the reported melting point value of CC(=O)NCCCCC(N)C(=O)O (stereo not given) .
250

State the recorded melting point for this entry: O=Cc1ccc(Br)c(Br)c1
71

Requested field: melting point. Item: CCOC(=O)Nc1c([N+](=O)[O-])cc(C)cc1[N+](=O)[O-]
65

Suppose we examine the molecule NC(c1ccccc1)(c1ccccc1)c1ccccc1 ; what melting point value has been reported?
102

(P) O=C(O)CCN1C(=O)c2ccccc2C1=O
(Q) Nc1ccc(SSc2ccc(N)cc2)cc1
(R) O=C(O)c1ccc(N/N=C(\C(=O)c2cccs2)C(=O)C(F)(F)F)cc1
(S) Cc1ccc(O)c(F)c1F
(T) C=CCCCCCCCCC=O
Rank the items in ascending order with respect to melting point. Put the labels in the requested order and list them out.
T, S, Q, P, R

(P) O=C(C1=NOC2C(=O)N(c3ccc(F)cc3)C(=O)C12)c1ccccc1 (stereo not given)
(Q) c1ccc(SSc2ccccn2)nc1
(R) C=C1CC2C3C=C(C)C4=CC(=O)CCC4(C)C3CCC2(C)C1(OC(C)=O)C(C)=O (stereo not given)
Rank ascending by melting point. Reply with the item labels sorted in the order that was asked for.
Q, P, R
(Q: 58 °C, P: 156 °C, R: 224 °C)

(1) CCOC(=O)NNC(=O)Nc1ccc(Cl)cc1
(2) CC(=O)c1cn(C)c2ccccc12
// pick larger melting point from pair: 1 vs 2 Indicate your choice by writing its label.
1
(1: 194 °C, 2: 107 °C)

----------
melting point listing for selected molecules.

What does the data say about its melting point? Entry: CCCCCn1c(O)nnc1S
146 to 149 °C

For the molecule N[C@H](CCCCP(=O)(O)O)C(=O)O , what melting point is on record?
215 to 220 °C

// switching to the query molecule
So what does the record say about melting point for C/C(=N\NC(=O)c1ccccn1)c1c(O)c2ccccc2n(-c2ccccc2)c1=O ?
288 to 290 °C

----------
Quick reference: melting point of the listed items.

A selection of reference data follows.
May I ask what melting point has been recorded for Cc1ccc(COc2cccc(F)c2C#N)cc1 ?
81 to 83 °C

May I ask what melting point has been recorded for O=C(O)c1nc2ccccc2nc1O ?
267 to 268 °C

Quick one: melting point for O=C(CBr)c1cccc2c1OCCCO2 ?
55 to 56 °C

Tell me the measured melting point of S=C=Nc1c(Br)cc(Br)cc1Br , please.
106 to 110 °C

Which melting point value is on record for O=[N+]([O-])c1ccc(C2Nn3c(nnc3-c3cccnc3)S2)cc1 (stereo unspecified) ?
245 to 246 °C

# context switch: different compound, same melting point
Looking for the measured melting point of O=Cc1cccc(N2CCOCC2)n1 , can you help?
93 to 95 °C

----------
This listing pairs compounds with measured melting point.

I'd like to know its melting point. The compound in question is CC(=O)C1(O)CCC2(C)C(CCC3C4CCC(=O)C4(C)CCC32)C1 (centres undefined)
211 to 212 °C

Which melting point reading was recorded for the compound CC(C)(C)OC(=O)N1CCN(c2ccc(I)cn2)CC1 ?
102 to 105 °C

More entries:
# input compound: CC1=CC2OC1C(Cl)(Cl)C(=O)C2(Cl)Cl (centres undefined) ; wanted: its melting point
90 to 90.5 °C

Returns the measured melting point for the input compound. Input: C=CCC(=O)N1CCN(C(=O)OCC2c3ccccc3-c3ccccc32)CC1
105 to 107 °C

----------
metric: melting point (°C)

Reported melting point, molecule Nc1ccn(C2OC(COP(=O)(O)O)C(O)C2O)c(=O)n1 (configuration not stated) : ____
233

What value of melting point has been reported for the following molecule? O=C1C=C(c2ccccc2)CC1
-23

(a) Oc1c(Cl)cccc1-c1ccccc1
(b) Cc1cccc(NC(=O)c2ccccc2C(=O)O)c1
(c) ON=C(c1ccccc1)c1ccc(O)cc1
(d) NC12c3ccccc3C(c3ccccc31)c1ccccc12
(e) CN1CCCC1c1cccnc1 (configuration not stated)
Rank order required: melting point, descending. Please respond by ranking the labels in the order requested.
d, b, c, a, e

(1) O=C(C1=NOC2C(=O)N(c3ccccc3[N+](=O)[O-])C(=O)C12)c1ccco1 (configuration not stated)
(2) COC1=C(C(C)C)C(=O)C2=C(C1=O)C1(C)CCCC(C)(C)C1CC2O (configuration not stated)
Lower value for measured melting point? Options: 1 , 2 In your reply, give the label of the chosen option.
2

(A) CCCCCCCCCCCCCCCCC(C)C
(B) CC(=O)c1cc(Br)cc([N+](=O)[O-])c1O
When A and B are compared, which has the higher number for melting point? When you have decided, please share the label of that item.
B

(a) COC1CC2C3(C)CCCC2(COC3)C2C(OC(C)=O)CC3C(C)C(=O)C12C3O (configuration not stated)
(b) CCOC(C/N=C/c1cccc(/C=N/CC(OCC)OCC)c1)OCC
Which is greater in melting point, the first item a or the second item b ? Identify your pick by its label.
a

(I) Cc1c(Cl)cccc1Nc1ncccc1C(=O)O
(II) C12C3C4C1C1C2C3C41 (configuration not stated)
Among I and II , whose measured melting point is the smaller figure? Mark your selection by writing its label.
II

(A) CS(=O)(=O)Nc1ccc2nn(C3CCCC3)nc2c1
(B) CCCC(C)c1ccccc1 (configuration not stated)
(C) Cc1ccc(Br)cc1O
(D) NNC(=O)c1ccc(O)c(N)c1
(E) CCOCCC(OCC)OCC
# desc sort on melting point across 5 molecules List the labels according to the requested ordering.
D, A, C, E, B
(D: 251 °C, A: 126 °C, C: 79 °C, E: 53 °C, B: -70 °C)

(A) CCOC(=O)Cc1cccc2ccccc12
(B) CCOc1cc(OCC)cc(OCC)c1
// compare measured melting point between A and B ; output the lower one Give the label of your selection.
B

----------
metric: melting point

The examples below pair each entry with its known result.
Find the recorded melting point belonging to Cc1nc(-c2ccc3c(c2)CCO3)sc1C(=O)O and report it.
221 to 225 °C

Form field: reported melting point of Cc1ccc(C2(C(=O)O)CC2)cc1
109 to 114 °C

Others:
Any idea what melting point was measured for CCOC(=O)C(=NOC(C)(C)C(=O)OC(C)(C)C)c1csc(N)n1 ?
168 to 174 °C

// query melting point value for entry Nc1nc2ccc([N+](=O)[O-])cc2s1
247 to 249 °C

Form field: reported melting point of ON=C(Cl)c1c(Cl)cccc1Cl
85 to 89 °C

Fill blank: measured melting point of the compound CCOC(=O)C(C#N)=Cc1ccc(-c2ccccc2Br)o1 is ____.
123 to 124 °C

Entry O=[N+]([O-])c1ccc(Cl)cc1Nc1ccccc1 : reported melting point = ?
110 to 114 °C

Which melting point value belongs to CC(=O)OCC1OC(n2cc(I)c(=O)[nH]c2=O)CC1OC(C)=O (stereo not drawn) ?
161 to 163 °C
